Biological target: human glucagon receptor (human, UniProt P47871 26-477)
Sequence (P47871 26-477): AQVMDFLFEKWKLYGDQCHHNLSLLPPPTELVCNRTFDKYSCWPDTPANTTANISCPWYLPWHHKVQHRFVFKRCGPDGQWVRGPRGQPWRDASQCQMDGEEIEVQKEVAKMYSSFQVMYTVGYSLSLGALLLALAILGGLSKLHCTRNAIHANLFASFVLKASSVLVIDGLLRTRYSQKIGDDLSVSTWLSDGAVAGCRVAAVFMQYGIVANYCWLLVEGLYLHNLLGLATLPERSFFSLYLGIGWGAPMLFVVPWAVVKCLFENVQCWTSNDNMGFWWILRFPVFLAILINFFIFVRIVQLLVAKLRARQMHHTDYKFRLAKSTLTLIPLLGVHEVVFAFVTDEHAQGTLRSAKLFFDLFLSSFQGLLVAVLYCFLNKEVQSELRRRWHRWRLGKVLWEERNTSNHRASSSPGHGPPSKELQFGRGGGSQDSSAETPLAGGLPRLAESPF
Test: cell-based or functional assay
valueType: cAMP EC50 (1.0% HSA)

Observe how each entry below is paired with its result.
- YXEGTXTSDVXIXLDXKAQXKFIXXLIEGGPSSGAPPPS (Y-Aib-EGT-αMeF(2F)-TSDV-Aib-I-αMeL-LD-Orn-K((2-[2-(2-Amino-ethoxy)-ethoxy]-acetyl)2-(10-(4-carboxyphenoxy)decanoyl))AQ-Aib-K((2-[2-(2-Amino-ethoxy)-ethoxy]-acetyl)2-(10-(4-carboxyphenoxy)decanoyl))FI-(D-Glu)-αMeY-LIEGGPSSGAPPPS-NH2) [Example 394]: > 9.95 µM
- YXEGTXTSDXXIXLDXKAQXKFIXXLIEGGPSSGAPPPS (Y-Aib-EGT-αMeF(2F)-TSD-4Pal-Aib-I-αMeL-LD-Orn-K(PEG4-(γ-Glu)-CO-(CH2)12-CO2H)AQ-Aib-K(PEG4-(γ-Glu)-CO-(CH2)12-CO2H)FI-(D-Glu)-αMeY-LIEGGPSSGAPPPS-NH2) [Example 405]: > 9.95 µM
- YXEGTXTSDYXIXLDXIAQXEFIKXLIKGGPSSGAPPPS (Y-Aib-EGT-αMeF(2F)-TSDY-Aib-I-αMeL-LD-Orn-IAQ-Aib-EFIK((2-[2-(2-Amino-ethoxy)-ethoxy]-acetyl)-(γ-Glu)-(2-[2-(2-Amino-ethoxy)-ethoxy]-acetyl)-CO-(CH2)12-CO2H)-αMeY-LIK((2-[2-(2-Amino-ethoxy)-ethoxy]-acetyl)-(γ-Glu)-(2-[2-(2-Amino-ethoxy)-ethoxy]-acetyl)-CO-(CH2)12-CO2H)GGPSSGAPPPS-NH2) [Example 365]: > 9.95 µM
- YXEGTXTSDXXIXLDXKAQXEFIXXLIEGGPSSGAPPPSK (Y-Aib-EGT-αMeF(2F)-TSD-4Pal-Aib-I-αMeL-LD-Orn-K((2-[2-(2-Amino-ethoxy)-ethoxy]-acetyl)2-(γ-Glu)-CO-(CH2)12-CO2H)AQ-Aib-EFI-(D-Glu)-αMeY-LIEGGPSSGAPPPSK((2-[2-(2-Amino-ethoxy)-ethoxy]-acetyl)2-(γ-Glu)-CO-(CH2)12-CO2H)-NH2) [Example 359]: > 9.95 µM
- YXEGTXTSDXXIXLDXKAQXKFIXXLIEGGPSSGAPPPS (Y-Aib-EGT-αMeF(2F)-TSD-4Pal-Aib-I-αMeL-LD-Orn-K(PEG3-(γ-Glu)-CO-(CH2)12-CO2H)AQ-Aib-K(PEG3-(γ-Glu)-CO-(CH2)12-CO2H)FI-(D-Glu)-αMeY-LIEGGPSSGAPPPS-NH2) [Example 404]: > 9.95 µM

Parameter requested: cAMP EC50 (1.0% HSA). Apply to each item below.
1. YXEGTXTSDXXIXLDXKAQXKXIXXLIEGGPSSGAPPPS (Y-Aib-EGT-αMeF(2F)-TSD-4Pal-Aib-I-αMeL-LD-Orn-K((2-[2-(2-Amino-ethoxy)-ethoxy]-acetyl)3-(γ-Glu)-CO-(CH2)10-CH3)AQ-Aib-K((2-[2-(2-Amino-ethoxy)-ethoxy]-acetyl)3-(γ-Glu)-CO-(CH2)10-CH3)-αMeF-I-(D-Glu)-αMeY-LIEGGPSSGAPPPS-NH2) [Example 437]
2. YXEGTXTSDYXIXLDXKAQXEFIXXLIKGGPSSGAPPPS (Y-Aib-EGT-αMeF(2F)-TSDY-Aib-I-αMeL-LD-Orn-K((2-[2-(2-Amino-ethoxy)-ethoxy]-acetyl)2-CO-(CH2)12-CO2H)AQ-Aib-EFI-(D-Glu)-αMeY-LIK((2-[2-(2-Amino-ethoxy)-ethoxy]-acetyl)2-CO-(CH2)12-CO2H)GGPSSGAPPPS-NH2) [Example 388]
3. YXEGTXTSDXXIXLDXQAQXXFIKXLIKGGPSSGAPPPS (Y-Aib-EGT-αMeF(2F)-TSD-4Pal-Aib-I-αMeL-LD-Orn-QAQ-Aib-Orn-FIK(PEG3-(γ-Glu)-(10-(4-carboxyphenoxy)decanoyl))-αMeY-LIK(PEG3-(γ-Glu)-(10-(4-carboxyphenoxy)decanoyl))GGPSSGAPPPS-NH2) [Example 462]
4. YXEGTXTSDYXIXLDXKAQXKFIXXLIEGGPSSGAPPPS (Y-Aib-EGT-αMeF(2F)-TSDY-Aib-I-αMeL-LD-Orn-K((2-[2-(2-Amino-ethoxy)-ethoxy]-acetyl)-(γ-Glu)-(10-(4-carboxyphenoxy)decanoyl))AQ-Aib-K((2-[2-(2-Amino-ethoxy)-ethoxy]-acetyl)-(γ-Glu)-(10-(4-carboxyphenoxy)decanoyl))FI-(D-Glu)-αMeY-LIEGGPSSGAPPPS-NH2) [Example 372]
5. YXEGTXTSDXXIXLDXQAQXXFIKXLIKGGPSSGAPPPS (Y-Aib-EGT-αMeF(2F)-TSD-4Pal-Aib-I-αMeL-LD-Orn-QAQ-Aib-4Pal-FIK((2-[2-(2-Amino-ethoxy)-ethoxy]-acetyl)2-(γ-Glu)-(10-(4-carboxyphenoxy)decanoyl))-αMeY-LIK((2-[2-(2-Amino-ethoxy)-ethoxy]-acetyl)2-(γ-Glu)-(10-(4-carboxyphenoxy)decanoyl))GGPSSGAPPPS-NH2) [Example 493]
6. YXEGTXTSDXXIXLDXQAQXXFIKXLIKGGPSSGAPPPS (not fully specified; Y-Aib-EGT-αMeF(2F)-TSD-4Pal-Aib-I-αMeL-LD-Orn-QAQ-Aib-Orn-FIK((2-[2-(2-Amino-ethoxy)-ethoxy]10-(4-carboxyphenoxy)decanoyl))-αMeY-LIK((2-[2-(2-Amino-ethoxy)-ethoxy]-acetyl)-Aoc-(γ-Glu)-(10-(4-carboxyphenoxy)decanoyl))GGPSSGAPPPS-NH2) [Example 454]
7. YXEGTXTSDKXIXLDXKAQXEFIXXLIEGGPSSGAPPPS (Y-Aib-EGT-αMeF(2F)-TSDK((2-[2-(2-Amino-ethoxy)-ethoxy]-acetyl)-(γ-Glu)-CO-(CH2)10-CH3)-Aib-I-αMeL-LD-Orn-K((2-[2-(2-Amino-ethoxy)-ethoxy]-acetyl)-(γ-Glu)-CO-(CH2)10-CH3)AQ-Aib-EFI-(D-Glu)-αMeY-LIEGGPSSGAPPPS-NH2) [Example 425]
8. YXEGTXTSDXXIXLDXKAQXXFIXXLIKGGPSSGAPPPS (Y-Aib-EGT-αMeF(2F)-TSD-4Pal-Aib-I-αMeL-LD-Orn-K((2-[2-(2-Amino-ethoxy)-ethoxy]-acetyl)3-(γ-Glu)-CO-(CH2)10-CH3)AQ-Aib-Orn-FI-(D-Glu)-αMeY-LIK((2-[2-(2-Amino-ethoxy)-ethoxy]-acetyl)3-(γ-Glu)-CO-(CH2)10-CH3)GGPSSGAPPPS-NH2) [Example 434]

Return:
> 9.95 µM
> 9.95 µM
> 9.95 µM
> 9.95 µM
> 9.95 µM
> 9.95 µM
> 9.95 µM
> 9.95 µM
